The measured values listed here are drawn from patent US7635788B2.

Tested on: human hepatoma cell line Hep-G2
protocol description: Cytotoxicity towards tumour cells in vitro (Cell Titer 96 formazane colorimetric assay)
Assay type: cell-based
conditions used: 10^−6 M, 48 h, percentage inhibition of the formation of formazane relative to the control
measured parameter: Cytotoxicity at 10^−6 M (%)
Give the quantity in %, number only.

Would you please look over these solved cases?
O=C(NO)c1ccc(NC(=O)[C@H](Cc2ccc(C(F)(F)F)cc2)NC(=O)c2ccc3ccccc3c2)cc1 [Example 2w]: 25.3
CC(=O)N[C@H](C(=O)Nc1ccc(C(=O)NO)cc1)C1Cc2ccccc2C1 [Example 2c]: 28.5
O=C(NO)c1ccc(NC(=O)[C@@H](Cc2ccc3ccccc3c2)NC(=O)c2ccc3c(c2)OCO3)cc1 [Example 2r]: 16.6
O=C(NO)c1ccc(NC(=O)[C@H](Cc2ccc(C(F)(F)F)cc2)NC(=O)c2cncc(Br)c2)cc1 [Example 2o]: 34.8
Nc1ccc(C(=O)N[C@@H](Cc2ccc3ccccc3c2)C(=O)Nc2ccc(C(=O)NO)cc2)cc1 [Example 2m]: 24.5

Value of measured Cytotoxicity at 10^−6 M for the entry O=C(NO)c1ccc(NC(=O)[C@@H](Cc2ccc3ccccc3c2)NC(=O)c2ccc3ccccc3c2)cc1 [Example 2v] : 11.8
